Data provenance: ChEMBL document CHEMBL5506017

# Target system: Proteasome subunit beta type-9 (Homo sapiens, UniProt P28065)
# Sequence (P28065 whole entry): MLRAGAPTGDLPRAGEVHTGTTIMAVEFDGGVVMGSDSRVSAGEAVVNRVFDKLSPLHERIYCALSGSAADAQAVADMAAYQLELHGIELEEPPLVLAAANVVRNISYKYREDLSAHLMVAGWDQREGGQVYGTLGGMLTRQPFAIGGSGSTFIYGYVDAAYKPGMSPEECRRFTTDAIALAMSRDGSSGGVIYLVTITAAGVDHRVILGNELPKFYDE
# Measurement description: Inhibition of human LMP2 using Ac-PAL-AMC as substrate incubated for 1 hr by fluorescence based SpectraMax M5e plate reader
Catalogue of molecules with associated pIC50
On this scale, pIC50 is minus log10 of a concentration expressed in M (mol/L).

C[C@]1(C(=O)[C@H](Cc2ccccc2)NC(=O)[C@@H]2COCCCCCC(=O)N3C[C@H](F)C[C@H]3C(=O)N2)CO1 ... 6.90
C[C@]1(C(=O)[C@H](CC2=CCCC2)NC(=O)[C@@H]2COCCCCCC(=O)N3C[C@H](F)C[C@H]3C(=O)N2)CO1 ... 6.86
C[C@]1(C(=O)[C@H](CC2=CCCC2)NC(=O)[C@@H]2Cc3ccc(cc3)OCCCCCCCC(=O)N3CCC[C@H]3C(=O)N2)CO1 ... 6.66

// returns reported pIC50 for input CC(C)C[C@H](NC(=O)[C@@H]1COCCCCCC(=O)N2C[C@H](F)C[C@H]2C(=O)N1)C(=O)[C@@]1(C)CO1
7.06

----------
# Measurement description: Cytotoxicity against human ARPE-19 cells assessed as reduction in cell viability incubated for 96 hrs by CellTiter 96 Aqueous One Solution Cell Proliferation Assay
# Type: toxicity, cell-based
Measurement name: IC50 at 96 h

C[C@]1(C(=O)[C@H](CC2=CCCC2)NC(=O)[C@@H]2COCCCCCC(=O)N3C[C@H](F)C[C@H]3C(=O)N2)CO1 ... > 100 µM

// returns reported IC50 at 96 h for input CC(C)C[C@H](NC(=O)[C@@H]1COCCCCCC(=O)N2CC[C@H]2C(=O)N1)C(=O)[C@@]1(C)CO1
> 100 µM

For CC(C)C[C@H](NC(=O)[C@@H]1COCCCCCC(=O)N2C[C@H](F)C[C@H]2C(=O)N1)C(=O)[C@@]1(C)CO1 then?
> 100 µM

For C[C@]1(C(=O)[C@H](Cc2ccccc2)NC(=O)[C@H](CO)NC(=O)c2cccc(=O)[nH]2)CO1 then?
> 30 µM

For CC(C)C[C@H](NC(=O)[C@H](CCc1ccccc1)NC(=O)CN1CCOCC1)C(=O)N[C@@H](Cc1ccccc1)C(=O)N[C@@H](CC(C)C)C(=O)[C@@]1(C)CO1 then?
0.058 µM

For CC(C)C[C@H](NC(=O)[C@@H]1COCCCCCC(=O)N2CC(F)(F)C[C@H]2C(=O)N1)C(=O)[C@@]1(C)CO1 then?
> 100 µM

----------
# Measurement description: Metabolic stability in human liver microsomes assessed as parent compound remaining at 2 uM measured at 60 mins by LC-MS/MS analysis
# Type: ADME, Microsome
# Details: 1 h
# strict inequality: Stability < 20% yields t, everything else yields f

CC(C)C[C@H](NC(=O)[C@@H]1COCCCCCC(=O)N2CC[C@H]2C(=O)N1)C(=O)[C@@]1(C)CO1 ... f

Please check: Stability for C[C@]1(C(=O)[C@H](Cc2ccccc2)NC(=O)[C@@H]2COCCCCCC(=O)N3C[C@H](F)C[C@H]3C(=O)N2)CO1 , strictly under 20% or not?
t

For CC(C)C[C@H](NC(=O)[C@@H]1COCCCCCC(=O)N2C[C@H](F)C[C@H]2C(=O)N1)C(=O)[C@@]1(C)CO1 then?
f

For CC(C)C[C@H](NC(=O)[C@@H]1COCCCCCC(=O)N2CC(F)(F)C[C@H]2C(=O)N1)C(=O)[C@@]1(C)CO1 then?
t

For C[C@]1(C(=O)[C@H](CC2=CCCC2)NC(=O)[C@@H]2COCCCCCC(=O)N3C[C@H](F)C[C@H]3C(=O)N2)CO1 then?
t

For CC(C)C[C@H](NC(=O)[C@@H]1COCCCCCCC(=O)NCC(=O)N2CCC[C@H]2C(=O)N1)C(=O)[C@@]1(C)CO1 then?
t

For CC(C)C[C@H](NC(=O)[C@@H]1COCCCCCC(=O)NCC(=O)N2CCC[C@H]2C(=O)N1)C(=O)[C@@]1(C)CO1 then?
f
